Items are presented alongside their recorded IC50.
# Experimental System: Tyrosine-protein phosphatase non-receptor type 1 (Homo sapiens)
# Sequence (P18031 whole entry): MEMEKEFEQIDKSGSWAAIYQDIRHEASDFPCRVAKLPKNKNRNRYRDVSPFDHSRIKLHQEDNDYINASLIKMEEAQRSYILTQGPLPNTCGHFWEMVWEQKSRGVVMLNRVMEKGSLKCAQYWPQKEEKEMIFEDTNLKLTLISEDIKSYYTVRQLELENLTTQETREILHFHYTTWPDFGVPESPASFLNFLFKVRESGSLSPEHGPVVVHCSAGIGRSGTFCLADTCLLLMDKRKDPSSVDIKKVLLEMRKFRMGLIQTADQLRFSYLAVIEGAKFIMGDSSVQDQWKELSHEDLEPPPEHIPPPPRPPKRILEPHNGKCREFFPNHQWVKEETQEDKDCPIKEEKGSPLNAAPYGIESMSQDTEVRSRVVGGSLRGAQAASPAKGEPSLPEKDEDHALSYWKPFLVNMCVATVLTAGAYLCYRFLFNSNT
# Assay Procedure: Inhibition of human recombinant PTP1B

# Molecule, Measured Result
rows = [
    ("CC1(C)C=Cc2cc([C@@H]3CC(=O)c4c(O)cc(O)cc4O3)cc(O)c2O1", "> 60 µM"),
    ("COc1cc(C2CC(=O)c3c(O)cc(O)cc3O2)cc2c1OC(C)(C)C=C2 (stereo not drawn)", "18.2 µM"),
    ("C=C(C)C(O)Cc1cc([C@@H]2CC(=O)c3c(O)cc(O)cc3O2)cc(CC=C(C)C)c1O (stereo partly drawn)", "15.7 µM"),
    ("CC(C)=CCc1cc(-c2cc(=O)c3c(O)cc(O)cc3o2)ccc1O", "26.7 µM"),
    ("CC(C)=CCc1cc([C@@H]2CC(=O)c3c(O)cc(O)cc3O2)cc(O)c1O", "19.4 µM"),
]

Here's the next entry for you.
Test item "COc1cc([C@@H]2CC(=O)c3c(O)cc(O)cc3O2)cc(CC=C(C)C)c1O" ; Tyrosine-protein phosphatase non-receptor type 1 (Homo sapiens); reported IC50 was 17.3 µM
